- Target Entity: T1, human NMI (N-myc Interacting protein), recombinant protein (human, UniProt Q13287 1-307, limits assumed)
- T1 construct: Gene ID: 9111; also called hNMI; antigen
- T1 sequence (looked up): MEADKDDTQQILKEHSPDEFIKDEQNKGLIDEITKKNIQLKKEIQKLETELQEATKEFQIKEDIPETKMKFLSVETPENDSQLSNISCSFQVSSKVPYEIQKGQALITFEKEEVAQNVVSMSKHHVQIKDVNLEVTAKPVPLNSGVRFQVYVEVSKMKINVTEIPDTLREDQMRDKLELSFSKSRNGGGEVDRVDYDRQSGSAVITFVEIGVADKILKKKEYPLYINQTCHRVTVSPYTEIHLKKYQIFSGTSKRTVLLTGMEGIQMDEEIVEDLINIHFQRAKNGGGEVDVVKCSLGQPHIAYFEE
- Method Description: sandwich ELISA; detection 94C4-1-biotin 1µg/mL; hNMI 6,250.000 pg/mL
binders and their reported OD450
Number only, in OD450; omit the unit.

- Binder: "monoclonal antibody 39B4 (antibody, V domains shown, Rabbit monoclonal antibody; also called 39B4-1) VH: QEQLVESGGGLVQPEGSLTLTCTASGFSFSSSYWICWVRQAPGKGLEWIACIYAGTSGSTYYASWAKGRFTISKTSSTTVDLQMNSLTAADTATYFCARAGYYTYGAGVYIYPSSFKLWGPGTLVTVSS VL: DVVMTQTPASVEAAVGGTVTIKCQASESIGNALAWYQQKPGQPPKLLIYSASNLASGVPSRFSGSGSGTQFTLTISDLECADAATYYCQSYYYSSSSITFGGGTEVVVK"
  Test Value: 1.52

Consider monoclonal antibody 240B10-1 (antibody, V domains shown, Rabbit monoclonal antibody) VH: QSLEESGGRLVTPGGSLTLTCTVSGIDLSSYTMGWVRQAPGKGLEYIGIISGGGRTYYASWAKGRFTISKTSSTTVDLKVTSLTTEDTATYFCARIYTLWGQGTLVTVSS VL: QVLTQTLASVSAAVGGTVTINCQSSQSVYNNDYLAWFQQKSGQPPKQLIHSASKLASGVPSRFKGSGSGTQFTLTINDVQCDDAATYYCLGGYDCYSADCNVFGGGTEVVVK . Its measured OD450 is 1.47

Consider monoclonal antibody 98G10 (antibody, V domains shown, Rabbit monoclonal antibody) VH: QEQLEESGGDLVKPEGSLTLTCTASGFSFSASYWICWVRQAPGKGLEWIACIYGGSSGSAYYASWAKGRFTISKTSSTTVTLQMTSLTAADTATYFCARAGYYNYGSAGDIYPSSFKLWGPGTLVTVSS VL: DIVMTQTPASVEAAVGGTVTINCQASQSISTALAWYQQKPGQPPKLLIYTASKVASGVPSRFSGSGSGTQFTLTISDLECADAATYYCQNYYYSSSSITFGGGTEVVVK . Its measured OD450 is 1.53

Consider monoclonal antibody B-8 (antibody, V domains shown, Rabbit monoclonal antibody; also called B8-1) VH: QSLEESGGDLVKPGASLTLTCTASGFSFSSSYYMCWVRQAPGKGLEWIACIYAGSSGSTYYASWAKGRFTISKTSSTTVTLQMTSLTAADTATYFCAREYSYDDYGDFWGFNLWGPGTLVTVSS VL: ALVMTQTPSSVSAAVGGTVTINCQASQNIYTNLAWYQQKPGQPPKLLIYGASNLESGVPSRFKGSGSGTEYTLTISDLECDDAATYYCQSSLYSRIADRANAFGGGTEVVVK . Its measured OD450 is 1.3
